assay: Fluorescence properties of the CypH dyes at pH 5.0 and pH 7.5 (Table 2); format: physicochemical; conditions: pH 7.5
Measured Attribute: FL Max (nm) pH 7.5

CCN(CC)c1ccc(OC2=C(/C=C/C3=[N+](C)c4ccccc4C3(C)C)CCC/C2=C\C=C2\N(C)c3ccccc3C2(C)C)cc1.[Cl-]: 784
CCN(C)c1ccc(OC2=C(/C=C/C3=[N+](C)c4ccccc4C3(C)C)CC/C2=C\C=C2\N(C)c3ccccc3C2(C)C)cc1.[Cl-]: 791
CC(C)CN1/C(=C/C=C2\CCCC(/C=C/C3=[N+](CC(C)C)c4ccccc4C3(C)C)=C2Oc2ccc(N(C)C(C)C)cc2)C(C)(C)c2ccccc21.[I-]: 790
CCN(C)c1ccc(OC2=C(/C=C/C3=[N+](C(C)C)c4ccccc4C3(C)C)CCC/C2=C\C=C2\N(C(C)C)c3ccccc3C2(C)C)cc1: 782
CC(C)N(C)c1ccc(OC2=C(/C=C/C3=[N+](C)c4ccccc4C3(C)C)CCC/C2=C\C=C2\N(C)c3ccccc3C2(C)C)cc1: 784
CCCN1/C(=C/C=C2\CCCC(/C=C/C3=[N+](CCC)c4ccccc4C3(C)C)=C2Oc2ccc(N(C)C(C)C)cc2)C(C)(C)c2ccccc21.[I-]: 783

====

experiment: Fluorescence properties of the CypH dyes at pH 5.0 and pH 7.5 (Table 2); format: physicochemical; conditions: pH 7.5
Measured Attribute: FL Intensity pH 7.5

I: CCCN1/C(=C/C=C2\CCCC(/C=C/C3=[N+](CCC)c4ccccc4C3(C)C)=C2Oc2ccc(N(C)C)cc2)C(C)(C)c2ccccc21.[I-]
II: CC(C)N(C)c1ccc(OC2=C(/C=C/C3=[N+](C)c4ccccc4C3(C)C)CCC/C2=C\C=C2\N(C)c3ccccc3C2(C)C)cc1
III: CCN1/C(=C/C=C2\CCCC(/C=C/C3=[N+](CC)c4ccccc4C3(C)C)=C2Oc2ccc(N(C)C)cc2)C(C)(C)c2ccccc21
*Q* Hi! Can you put these in order of FL Intensity pH 7.5, lowest number first? Form field (ranking): labels in requested order.
*A* I, III, II
(I: 81, III: 139, II: 493)

====

assay: Fluorescence properties of the CypH dyes at pH 5.0 and pH 7.5 (Table 2); assay type: physicochemical; settings: pH 5.0
Measured Attribute: FL Max (nm) pH 5.0

CCN(C)c1ccc(OC2=C(/C=C/C3=[N+](CC(C)C)c4ccccc4C3(C)C)CCC/C2=C\C=C2\N(CC(C)C)c3ccccc3C2(C)C)cc1.[I-] [CypH-20]: 794
CCN(C)c1ccc(OC2=C(/C=C/C3=[N+](CC)c4ccccc4C3(C)C)CCC/C2=C\C=C2\N(CC)c3ccccc3C2(C)C)cc1 [CypH-7]: 788
CC(C)N(C)c1ccc(OC2=C(/C=C/C3=[N+](C)c4ccccc4C3(C)C)CCC/C2=C\C=C2\N(C)c3ccccc3C2(C)C)cc1 [CypH-12]: 787
CC(C)N(C)c1ccc(OC2=C(/C=C/C3=[N+](CCCS(=O)(=O)[O-])c4ccccc4C3(C)C)CCC/C2=C\C=C2\N(CCCS(=O)(=O)[O-])c3ccccc3C2(C)C)cc1.[Na+] [CypH-9]: 793
CCN(C)c1ccc(OC2=C(/C=C/C3=[N+](C)c4ccccc4C3(C)C)CCC/C2=C\C=C2\N(C)c3ccccc3C2(C)C)cc1 [CypH-5]: 786
CCCN1/C(=C/C=C2\CCCC(/C=C/C3=[N+](CCC)c4ccccc4C3(C)C)=C2Oc2ccc(N(C)C(C)C)cc2)C(C)(C)c2ccccc21.[I-] [CypH-16]: 791
CCN1/C(=C/C=C2\CCCC(/C=C/C3=[N+](CC)c4ccccc4C3(C)C)=C2Oc2ccc(N(C)C)cc2)C(C)(C)c2ccccc21 [CypH-2]: 787
CCN(C)c1ccc(OC2=C(/C=C/C3=[N+](CCCS(=O)(=O)[O-])c4ccccc4C3(C)C)CCC/C2=C\C=C2\N(CCCS(=O)(=O)[O-])c3ccccc3C2(C)C)cc1.[Na+] [CypH-6]: 789
CCN(C)c1ccc(OC2=C(/C=C/C3=[N+](C)c4ccccc4C3(C)C)CC/C2=C\C=C2\N(C)c3ccccc3C2(C)C)cc1.[Cl-] [CypH-8]: 801
CCN1/C(=C/C=C2\CCCC(/C=C/C3=[N+](CC)c4ccccc4C3(C)C)=C2Oc2ccc(N(C)C(C)C)cc2)C(C)(C)c2ccccc21 [CypH-10]: 788
CCCN1/C(=C/C=C2\CCCC(/C=C/C3=[N+](CCC)c4ccccc4C3(C)C)=C2Oc2ccc(N(C)C)cc2)C(C)(C)c2ccccc21.[I-] [CypH-15]: 791
CCCN1/C(=C/C=C2\CCCC(/C=C/C3=[N+](CCC)c4ccccc4C3(C)C)=C2Oc2ccc(N(C)CC)cc2)C(C)(C)c2ccccc21.[I-] [CypH-18]: 792
